Assay: Encapsulation efficiency of lipid nanoparticles, Quant-it Ribogreen RNA assay
Type: physicochemical
Details: LNP of lipid/DSPC/cholesterol/PEG-lipid 50:10:38.5:1.5 encapsulating hEPO mRNA
Returns: string. Value is criterion met if measured Encapsulation Efficiency is below 90%, and criterion not met if it is greater than or equal to it.

[
  {
    "compound": "CCCCCCCCOC(=O)C(CCCCN(CCN(CCO)CCCCCC(=O)OCC(CCCCCC)CCCCCCCC)C1CCC1)C(=O)OCCCCCCCC (stereo not drawn) [Compound 223]",
    "cat": "criterion not met"
  },
  {
    "compound": "CCCCCCCCCCCOC(=O)CCCCCN(CCN(CCO)CCCCCC(=O)OCC(CCCCCCC)CCCCCCC)C1CCCCC1 [Compound 22]",
    "cat": "criterion not met"
  },
  {
    "compound": "CCCCCCCCC(CCCCCCCC)CNC(=O)CCCCCN(CCN(CCCCO)CCCCCC(=O)OCC(CCCCCCCC)CCCCCCCC)C1CCC1 [Compound 77]",
    "cat": "criterion not met"
  },
  {
    "compound": "CCCCCCCCC(CCCCCC)COC(=O)CCCCCN(CCO)CCN(CCCCC(COC(=O)CCCCCCC)COC(=O)CCCCCCC)C1CCCCCC1 (stereo not drawn) [Compound 142]",
    "cat": "criterion met"
  },
  {
    "compound": "CCCCCCCCC(CCCCCC)COC(=O)CCCCCN(CCO)CCN(CCCCCC(=O)OCC(CCCCCC)CCCCCCCC)C1CCC1 (stereo not drawn) [Compound 7]",
    "cat": "criterion not met"
  },
  {
    "compound": "CCCCCCCCC(CCCCCCCC)COC(=O)CCCCCN(CCO)CCN(CCCCCC(=O)OCC(CCCCCCCC)CCCCCCCC)C1CCCCC1C (stereo not drawn) [Compound 34]",
    "cat": "criterion met"
  }
]

Source listed as patent US20230348362A1.
